target: Dual luciferase reporter (DLR) with N(ε)-crotonyl-lysine at K529 of the Firefly enzyme
Sequence (chain, as listed by the source): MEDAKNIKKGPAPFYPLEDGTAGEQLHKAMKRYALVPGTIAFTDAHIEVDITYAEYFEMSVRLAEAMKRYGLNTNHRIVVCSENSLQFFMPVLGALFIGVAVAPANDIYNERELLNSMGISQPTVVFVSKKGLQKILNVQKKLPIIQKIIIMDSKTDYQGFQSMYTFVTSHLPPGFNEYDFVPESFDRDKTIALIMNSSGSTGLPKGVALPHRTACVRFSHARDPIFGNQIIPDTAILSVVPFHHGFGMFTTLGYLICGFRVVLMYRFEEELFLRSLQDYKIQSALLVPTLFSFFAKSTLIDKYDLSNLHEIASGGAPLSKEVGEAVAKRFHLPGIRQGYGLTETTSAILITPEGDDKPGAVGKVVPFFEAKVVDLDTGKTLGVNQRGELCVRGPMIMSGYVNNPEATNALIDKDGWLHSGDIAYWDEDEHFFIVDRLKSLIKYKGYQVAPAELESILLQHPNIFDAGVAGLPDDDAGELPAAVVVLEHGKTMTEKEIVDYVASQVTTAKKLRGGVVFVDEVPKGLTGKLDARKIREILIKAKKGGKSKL
hey, just use true if measured DLR activity [rel. to wild-type] (rel. to wild-type) is less than 1, otherwise false

{"protein": "Decrotonylase-1 (protein) KPRVLVLTGAGISAESGIRTFRAADGLWEEHRVEDVRTPEGFDRDPELVQAFGNATRRQLQQPEIQPNAAHLALAKLQDALGDRFLLVTQNRDNLHERAGNTNVIHMHGELLKVRCSQSGQVLDWTGDVTPEDKCHCCQFPAPLRPHLVWFGEMPLGMDEIYMALSMADIFIAIGTSGHVYPAAGFVHEAKLHGAHTVELNLEPSQVGNEFAEKYYGPASQVVPEFVEKLLKGLKAGSIA", "assigned.category": "true"}
{"protein": "Dealocase-2 (protein) KPRVLVLTGAGISAESGIRTFRAADGLWEEHRVEDVGTPEGFDRDPELVQAFYNAGRRQLQQPEIQPNAAHLALAKLQDALGDRFLLVTQNVDNLHERAGNTNVIHMHGELLKVRCSQSGQVLDWTGDVTPEDKCHCCQFPAPLRPHVVWFGEMPLGMDEIYMALSMADIFIAIGTSGHVYPAAGFVHEAKLHGAHTVELNLEPSQVGNEFAEKYYGPASQVVPEFVEKLLKGLKAGSIA", "assigned.category": "false"}
{"protein": "Debocylase-1 (protein) KPRVLVLTGAGISAESGIRTFRAADGLWEEHRVEDVATPEGFDRDPELVQAFYNARRRQLQQPEIQPNAAHLALAKLQDALGDRFLLVTQNVDNLHERAGNTNVIHMHGELLKVRCSQSGQVLDWTGDVTPEDKCHCCQFPAPLRPHLVWFGEMPLGMDEIYMALSMADIFIAIGTSGHVYPAAGFVHEAKLHGAHTVELNLEPSQVGNEFAEKYYGPASQVVPEFVEKLLKGLKAGSIA", "assigned.category": "false"}
{"protein": "Dealocase-1 (protein) KPRVLVLTGAGISAESGIRTFRAADGLWEEHRVEDVSTPEGFDRDPELVQAFWNAWRRQLQQPEIQPNAAHLALAKLQDALGDRFLLVTQNVDNLHERAGNTNVIHMHGELLKVRCSQSGQVLDWTGDVTPEDKCHCCQFPAPLRPHVVWFGEMPLGMDEIYMALSMADIFIAIGTSGHVYPAAGFVHEAKLHGAHTVELNLEPSQVGNEFAEKYYGPASQVVPEFVEKLLKGLKAGSIA", "assigned.category": "false"}
